System: HeLa Kyoto
Experimental protocol: solubility change mitosis vs G1/S (difference of NP-40 vs SDS log2 ratios) (log2 ratio difference); higher = more soluble in mitosis
Below, each entry is listed alongside its reported solubility change mitosis (log2).

{"Substance": "MSASAPAAEGEGTPTQPASEKEPEMPGPREESEEEEDEDDEEEEEEEKEKSLIVEGKREKKKVERLTMQVSSLQREPFTIAQGKGQKLCEIERIHFFLSKKKTDELRNLHKLLYNRPGTVSSLKKNVGQFSGFPFEKGSVQYKKKEEMLKKFRNAMLKSICEVLDLERSGVNSELVKRILNFLMHPKPSGKPLPKSKKTCSKGSKKERNSSGMARKAKRTKCPEILSDESSSDEDEKKNKEESSDDEDKESEEEPPKKTAKREKPKQKATSKSKKSVKSANVKKADSSTTKKNQNSSKKESESEDSSDDEPLIKKLKKPPTDEELKETIKKLLASANLEEVTMKQICKKVYENYPTYDLTERKDFIKTTVKELIS", "solubility change mitosis (log2)": 0.338}
{"Substance": "MGSQVSVESGALHVVIVGGGFGGIAAASQLQALNVPFMLVDMKDSFHHNVAALRASVETGFAKKTFISYSVTFKDNFRQGLVVGIDLKNQMVLLQGGEALPFSHLILATGSTGPFPGKFNEVSSQQAAIQAYEDMVRQVQRSRFIVVVGGGSAGVEMAAEIKTEYPEKEVTLIHSQVALADKELLPSVRQEVKEILLRKGVQLLLSERVSNLEELPLNEYREYIKVQTDKGTEVATNLVILCTGIKINSSAYRKAFESRLASSGALRVNEHLQVEGHSNVYAIGDCADVRTPKMAYLAGLHANIAVANIVNSVKQRPLQAYKPGALTFLLSMGRNDGVGQISGFYVGRLMVRLTKSRDLFVSTSWKTMRQSPP [AIFM2]", "solubility change mitosis (log2)": -0.209}
{"Substance": "CIAPIN1", "solubility change mitosis (log2)": -0.0971}
{"Substance": "MADLLGSILSSMEKPPSLGDQETRRKAREQAARLKKLQEQEKQQKVEFRKRMEKEVSDFIQDSGQIKKKFQPMNKIERSILHDVVEVAGLTSFSFGEDDDCRYVMIFKKEFAPSDEELDSYRRGEEWDPQKAEEKRKLKELAQRQEEEAAQQGPVVVSPASDYKDKYSHLIGKGAAKDAAHMLQANKTYGCVPVANKRDTRSIEEAMNEIRAKKRLRQSGEELPPTS [SPAG7]", "solubility change mitosis (log2)": -0.0144}
{"Substance": "MSFAESGWRSALRRRGPGTPGPVARPSYSSFTQGDSWGEGEVDEEEGCDQVARDLRAEFSAGAWSEPRKRSVLPPDGNGSPVLPDKRNGIFPAAAGSRAQPRRWPVQVLSILCSLLFAILLAFLLAIAYLIVKELHAENLKNEDDVDTGLLGFWTLLIISLTAGFSCCSFSWTVTYFDSFEPGMFPPTPLSPARFKKLTGHSFHMGYSMAILNGIVAALTVAWCLM [ARL6IP6]", "solubility change mitosis (log2)": 0.698}
{"Substance": "MSKYKLIMLRHGEGAWNKENRFCSWVDQKLNSEGMEEARNCGKQLKALNFEFDLVFTSVLNRSIHTAWLILEELGQEWVPVESSWRLNERHYGALIGLNREQMALNHGEEQVRLWRRSYNVTPPPIEESHPYYQEIYNDRRYKVCDVPLDQLPRSESLKDVLERLLPYWNERIAPEVLRGKTILISAHGNSSRALLKHLEGISDEDIINITLPTGVPILLELDENLRAVGPHQFLGDQEAIQAAIKKVEDQGKVKQAKK [BPGM]", "solubility change mitosis (log2)": -0.0036}
{"Substance": "MSADAAAGAPLPRLCCLEKGPNGYGFHLHGEKGKLGQYIRLVEPGSPAEKAGLLAGDRLVEVNGENVEKETHQQVVSRIRAALNAVRLLVVDPETDEQLQKLGVQVREELLRAQEAPGQAEPPAAAEVQGAGNENEPREADKSHPEQRELRPRLCTMKKGPSGYGFNLHSDKSKPGQFIRSVDPDSPAEASGLRAQDRIVEVNGVCMEGKQHGDVVSAIRAGGDETKLLVVDRETDEFFKKCRVIPSQEHLNGPLPVPFTNGEIQKENSREALAEAALESPRPALVRSASSDTSEELNSQDSPPKQDSTAPSSTSSSDPILDFNISLAMAKERAHQKRSSKRAPQMDWSKKNELFSNL [SLC9A3R1]", "solubility change mitosis (log2)": -0.0214}
{"Substance": "MVGEMETKEKPKPTPDYLMQLMNDKKLMSSLPNFCGIFNHLERLLDEEISRVRKDMYNDTLNGSTEKRSAELPDAVGPIVQLQEKLYVPVKEYPDFNFVGRILGPRGLTAKQLEAETGCKIMVRGKGSMRDKKKEEQNRGKPNWEHLNEDLHVLITVEDAQNRAEIKLKRAVEEVKKLLVPAAEGEDSLKKMQLMELAILNGTYRDANIKSPALAFSLAATAQAAPRIITGPAPVLPPAALRTPTPAGPTIMPLIRQIQTAVMPNGTPHPTAAIVPPGPEAGLIYTPYEYPYTLAPATSILEYPIEPSGVLGAVATKVRRHDMRVHPYQRIVTADRAATGN [QKI]", "solubility change mitosis (log2)": -0.0775}
{"Substance": "MSLKLQASNVTNKNDPKSINSRVFIGNLNTALVKKSDVETIFSKYGRVAGCSVHKGYAFVQYSNERHARAAVLGENGRVLAGQTLDINMAGEPKPDRPKGLKRAASAIYSGYIFDYDYYRDDFYDRLFDYRGRLSPVPVPRAVPVKRPRVTVPLVRRVKTNVPVKLFARSTAVTTSSAKIKLKSSELQAIKTELTQIKSNIDALLSRLEQIAAEQKANPDGKKKGDGGGAGGGGGGGGSGGGGSGGGGGGGSSRPPAPQENTTSEAGLPQGEARTRDDGDEEGLLTHSEEELEHSQDTDADDGALQ [RALY]", "solubility change mitosis (log2)": 0.275}
{"Substance": "MLRPAGLWRLCRRPWAARVPAENLGRREVTSGVSPRGSTSPRTLNIFDRDLKRKQKNWAARQPEPTKFDYLKEEVGSRIADRVYDIPRNFPLALDLGCGRGYIAQYLNKETIGKFFQADIAENALKNSSETEIPTVSVLADEEFLPFKENTFDLVVSSLSLHWVNDLPRALEQIHYILKPDGVFIGAMFGGDTLYELRCSLQLAETEREGGFSPHISPFTAVNDLGHLLGRAGFNTLTVDTDEIQVNYPGMFELMEDLQGMGESNCAWNRKALLHRDTMLAAAAVYREMYRNEDGSVPATYQIYYMIGWKYHESQARPAERGSATVSFGELGKINNLMPPGKKSQ [NDUFAF5]", "solubility change mitosis (log2)": -0.0552}

---

Test system: HeLa Kyoto
Experimental protocol: thermal stability score vs G1/S (z-score of summed log2 fold changes over temperatures); higher = more thermally stable than in G1/S
Assay setup: cell cycle stage: mitosis
Measurement type: thermal stability score

{"Ordered residues": "MSTAQSLKSVDYEVFGRVQGVCFRMYTEDEARKIGVVGWVKNTSKGTVTGQVQGPEDKVNSMKSWLSKVGSPSSRIDRTNFSNEKTISKLEYSNFSIRY [ACYP2]", "Measured target": "HeLa Kyoto", "Measurement type": "thermal stability score", "Data value": -1.11}
{"Ordered residues": "MDLDVVNMFVIAGGTLAIPILAFVASFLLWPSALIRIYYWYWRRTLGMQVRYVHHEDYQFCYSFRGRPGHKPSILMLHGFSAHKDMWLSVVKFLPKNLHLVCVDMPGHEGTTRSSLDDLSIDGQVKRIHQFVECLKLNKKPFHLVGTSMGGQVAGVYAAYYPSDVSSLCLVCPAGLQYSTDNQFVQRLKELQGSAAVEKIPLIPSTPEEMSEMLQLCSYVRFKVPQQILQGLVDVRIPHNNFYRKLFLEIVSEKSRYSLHQNMDKIKVPTQIIWGKQDQVLDVSGADMLAKSIANCQVELLENCGHSVVMERPRKTAKLIIDFLASVHNTDNNKKLD [ABHD6]", "Measured target": "HeLa Kyoto", "Measurement type": "thermal stability score", "Data value": -0.118}
{"Ordered residues": "MQWLRVRESPGEATGHRVTMGTAALGPVWAALLLFLLMCEIPMVELTFDRAVASGCQRCCDSEDPLDPAHVSSASSSGRPHALPEIRPYINITILKGDKGDPGPMGLPGYMGREGPQGEPGPQGSKGDKGEMGSPGAPCQKRFFAFSVGRKTALHSGEDFQTLLFERVFVNLDGCFDMATGQFAAPLRGIYFFSLNVHSWNYKETYVHIMHNQKEAVILYAQPSERSIMQSQSVMLDLAYGDRVWVRLFKRQRENAIYSNDFDTYITFSGHLIKAEDD [C1QTNF6]", "Measured target": "HeLa Kyoto", "Measurement type": "thermal stability score", "Data value": -0.884}

From: the supplement of paper PMC5998384
